Particulars: in acetone, 278.55 K
Measurement Name: solubility (mole fraction)
Give your answer as a number; write no unit.

The recorded solubility (mole fraction) for entry CCCc1nc2c(C)cc(-c3nc4ccccc4n3C)cc2n1Cc1ccc(-c2ccccc2C(=O)O)cc1 equals 4.42e-05

* * *

Particulars: in benzene, 307.25 K
Measurement Name: solubility (mole fraction)

The recorded solubility (mole fraction) for entry CCCc1nc2c(C)cc(-c3nc4ccccc4n3C)cc2n1Cc1ccc(-c2ccccc2C(=O)O)cc1 equals 0.000236

* * *

Particulars: in toluene, 300.05 K
Measurement Name: solubility (mole fraction)
Give your answer as a number; write no unit.

The recorded solubility (mole fraction) for entry CCCc1nc2c(C)cc(-c3nc4ccccc4n3C)cc2n1Cc1ccc(-c2ccccc2C(=O)O)cc1 equals 8.4e-05

* * *

Particulars: in methanol, 288.55 K
Measurement Name: solubility (mole fraction)

The recorded solubility (mole fraction) for entry CCCc1nc2c(C)cc(-c3nc4ccccc4n3C)cc2n1Cc1ccc(-c2ccccc2C(=O)O)cc1 equals 8.9e-05

* * *

Particulars: in ethanol, 329.75 K
Measurement Name: solubility (mole fraction)
Give your answer as a number; write no unit.

The recorded solubility (mole fraction) for entry CCCc1nc2c(C)cc(-c3nc4ccccc4n3C)cc2n1Cc1ccc(-c2ccccc2C(=O)O)cc1 equals 0.000219

* * *

Particulars: in ethyl acetate, 303.65 K
Measurement Name: solubility (mole fraction)
Give your answer as a number; write no unit.

The recorded solubility (mole fraction) for entry CCCc1nc2c(C)cc(-c3nc4ccccc4n3C)cc2n1Cc1ccc(-c2ccccc2C(=O)O)cc1 equals 5.9e-05

* * *

Particulars: in methanol, 313.25 K
Measurement Name: solubility (mole fraction)
Give your answer as a number; write no unit.

The recorded solubility (mole fraction) for entry CCCc1nc2c(C)cc(-c3nc4ccccc4n3C)cc2n1Cc1ccc(-c2ccccc2C(=O)O)cc1 equals 0.000186

* * *

Particulars: in toluene, 334.55 K
Measurement Name: solubility (mole fraction)

The recorded solubility (mole fraction) for entry CCCc1nc2c(C)cc(-c3nc4ccccc4n3C)cc2n1Cc1ccc(-c2ccccc2C(=O)O)cc1 equals 0.000307

* * *

Particulars: in benzene, 278.55 K
Measurement Name: solubility (mole fraction)
Give your answer as a number; write no unit.

The recorded solubility (mole fraction) for entry CCCc1nc2c(C)cc(-c3nc4ccccc4n3C)cc2n1Cc1ccc(-c2ccccc2C(=O)O)cc1 equals 6.95e-05

* * *

Particulars: in acetone, 303.85 K
Measurement Name: solubility (mole fraction)
Give your answer as a number; write no unit.

The recorded solubility (mole fraction) for entry CCCc1nc2c(C)cc(-c3nc4ccccc4n3C)cc2n1Cc1ccc(-c2ccccc2C(=O)O)cc1 equals 9.45e-05

* * *

Particulars: in isopropanol, 298.05 K
Measurement Name: solubility (mole fraction)
Give your answer as a number; write no unit.

The recorded solubility (mole fraction) for entry CCCc1nc2c(C)cc(-c3nc4ccccc4n3C)cc2n1Cc1ccc(-c2ccccc2C(=O)O)cc1 equals 2.77e-05

* * *

Particulars: in dichloromethane, 311.75 K
Measurement Name: solubility (mole fraction)
Give your answer as a number; write no unit.

The recorded solubility (mole fraction) for entry CCCc1nc2c(C)cc(-c3nc4ccccc4n3C)cc2n1Cc1ccc(-c2ccccc2C(=O)O)cc1 equals 0.00272

* * *

Particulars: in isopropanol, 309.55 K
Measurement Name: solubility (mole fraction)
Give your answer as a number; write no unit.

The recorded solubility (mole fraction) for entry CCCc1nc2c(C)cc(-c3nc4ccccc4n3C)cc2n1Cc1ccc(-c2ccccc2C(=O)O)cc1 equals 4.1e-05
